# target.or.test.system: human ether-à-go-go-related gene (hERG) potassium channel (human, UniProt Q12809)
# Sequence (Q12809 whole entry, looked up): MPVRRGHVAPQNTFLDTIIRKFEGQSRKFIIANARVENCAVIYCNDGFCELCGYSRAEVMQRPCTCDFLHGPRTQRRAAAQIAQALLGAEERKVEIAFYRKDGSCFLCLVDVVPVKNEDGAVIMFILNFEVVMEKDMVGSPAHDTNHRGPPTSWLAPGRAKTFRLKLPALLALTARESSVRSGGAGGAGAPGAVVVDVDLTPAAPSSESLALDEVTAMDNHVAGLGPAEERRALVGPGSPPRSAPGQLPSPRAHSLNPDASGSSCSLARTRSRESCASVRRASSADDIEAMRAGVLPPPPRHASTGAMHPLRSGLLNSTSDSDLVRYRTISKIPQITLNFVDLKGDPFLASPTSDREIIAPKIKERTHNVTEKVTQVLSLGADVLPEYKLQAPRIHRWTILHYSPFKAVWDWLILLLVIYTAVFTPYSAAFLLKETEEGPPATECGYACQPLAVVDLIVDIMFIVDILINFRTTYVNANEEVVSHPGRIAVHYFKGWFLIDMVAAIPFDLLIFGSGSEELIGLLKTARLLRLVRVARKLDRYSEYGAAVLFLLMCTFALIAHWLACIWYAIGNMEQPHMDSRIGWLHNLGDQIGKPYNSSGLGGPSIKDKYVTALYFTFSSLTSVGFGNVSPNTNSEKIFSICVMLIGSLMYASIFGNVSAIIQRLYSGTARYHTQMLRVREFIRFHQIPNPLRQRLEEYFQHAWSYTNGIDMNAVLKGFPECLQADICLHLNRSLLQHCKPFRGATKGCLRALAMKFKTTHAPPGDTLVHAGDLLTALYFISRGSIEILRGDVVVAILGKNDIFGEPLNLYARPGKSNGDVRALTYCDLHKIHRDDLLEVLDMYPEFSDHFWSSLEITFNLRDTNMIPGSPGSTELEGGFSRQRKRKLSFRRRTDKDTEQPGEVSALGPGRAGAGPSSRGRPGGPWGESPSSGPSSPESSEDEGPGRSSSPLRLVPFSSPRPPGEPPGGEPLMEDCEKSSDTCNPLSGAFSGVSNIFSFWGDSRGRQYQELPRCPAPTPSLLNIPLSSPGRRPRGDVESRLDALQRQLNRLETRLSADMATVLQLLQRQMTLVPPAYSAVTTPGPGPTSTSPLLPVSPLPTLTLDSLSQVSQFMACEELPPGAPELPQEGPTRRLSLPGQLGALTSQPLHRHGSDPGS
# procedure.summary: primary screen, population patch clamp on CHO cells stably expressing hERG; higher = less effect of the substance
Out of some 310,000 compounds screened, about 14,000 (4.5%) showed an effect of 50% or more. Effects have a minus sign here. Many of the other results were omitted from the sample, so strong results are more common in it than they were.
# Lookup of reported hERG current change (%, negative = inhibition) at 10uM keyed by entry
Output spec: scalar in %, unitless text.

Examples from the recorded data:
# chemical.smiles, numeric.result
data = [
    ("CCOC(=O)c1sc2nc(C)nc(NCc3ccc(Cl)cc3)c2c1C", -80.6),
    ("CCN(CC)CCCN1CC(O)=C(c2nc3ccccc3s2)C1=N", -34.2),
    ("O=C(Cc1ccccc1)NCC(=O)Nc1ccccc1Br", 16.8),
    ("COc1ccc(C)cc1N(CC(=O)O)S(=O)(=O)c1ccc(C)cc1", 17.1),
]

Reported hERG current change (%, negative = inhibition) at 10uM of `NC(=O)C1CCN(C(=O)COc2ccc3ccccc3c2)CC1` : 18.2

----------
# target.or.test.system: human ether-à-go-go-related gene (hERG) potassium channel (human, UniProt Q12809)
# procedure.summary: primary screen, population patch clamp on CHO cells stably expressing hERG; higher = less effect of the substance
In all, about 310,000 compounds went through this assay and about 14,000 (4.5%) showed an effect of 50% or more. The effect is printed as a negative number. The entries come from a sample that favours strong results as a whole.
# Lookup of reported hERG current change (%, negative = inhibition) at 10uM keyed by entry

Examples from the recorded data:
# compound, result
records = [
    ("Cc1ccccc1-n1cc(CNCc2c(C(=O)N(C)C)nc3ccc(Cl)cn23)cn1", "-7.4%"),
    ("COc1ccc(CNc2nc3nc(-c4ccccc4)cc(=O)n3[nH]2)cc1OC", "-13.1%"),
    ("CCn1cc(CN2CCCC(C(=O)Nc3cccc(-c4cc5ccccc5[nH]4)c3)C2)c(C)n1 (stereo not drawn)", "-14.4%"),
]

Reported hERG current change (%, negative = inhibition) at 10uM of `CCc1nnc(NC(=O)CN2CCN(c3ccccc3F)CC2)s1.Cl` : -12.9%

Reported hERG current change (%, negative = inhibition) at 10uM of `COC(=O)c1ccc(S(=O)(=O)N2CCC(c3nc4ccccc4o3)CC2)cc1` : 1.99%

Reported hERG current change (%, negative = inhibition) at 10uM of `CC(C)n1cc(CN2CCC(C(=O)Nc3cccc(-c4cscn4)c3)CC2)cn1` : -32.8%

Reported hERG current change (%, negative = inhibition) at 10uM of `COc1ccc(CNCc2c(C(=O)N(C)C)nc3ccc(Cl)cn23)c(OC)c1` : -11.1%

Reported hERG current change (%, negative = inhibition) at 10uM of `COc1cccc(-n2cc(CNCc3c(C(=O)N(C)C)nc4ccc(Cl)cn34)cn2)c1` : -55.9%

Reported hERG current change (%, negative = inhibition) at 10uM of CCC1=NN(C(=O)Cc2ccc([N+](=O)[O-])cc2)C(O)(c2ccncc2)C1 (stereo not drawn) : -11.9%

----------
# Lookup of reported hERG current change (%, negative = inhibition) at 10uM keyed by entry
# target.or.test.system: human ether-à-go-go-related gene (hERG) potassium channel (human, UniProt Q12809)
# procedure.summary: primary screen, population patch clamp on CHO cells stably expressing hERG; higher = less effect of the substance
Out of some 310,000 compounds screened, about 14,000 (4.5%) showed an effect of 50% or more. The effect is printed as a negative number. The entries come from a sample that favours strong results as a whole.
Output spec: scalar in %, unitless text.

# chemical.smiles, target.or.test.system, units.label, numeric.result
measured = [
    ("CCN(CC(=O)Nc1ccc(OC)cc1)C(=O)c1cc2c(s1)CCCCC2", "human ether-à-go-go-related gene (hERG) potassium channel (human, UniProt Q12809)", "%", 16.3),
]

Reported hERG current change (%, negative = inhibition) at 10uM of `C/C=C/C1=CC(=O)C[C@H](c2ccc(Cl)cc2)C1` : -63.9

----------
# target.or.test.system: human ether-à-go-go-related gene (hERG) potassium channel (human, UniProt Q12809);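 also: peak tail current of the secondary pulse compared with the same well before compound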
# procedure.summary: primary screen, population patch clamp on CHO cells stably expressing hERG; higher = less effect of the substance
In all, about 310,000 compounds went through this assay and about 14,000 (4.5%) showed an effect of 50% or more. The effect is printed as a negative number. What follows is part of a selection rich in strong results, with near analogues and random picks from the rest.
# Lookup of reported hERG current change (%, negative = inhibition) at 10uM keyed by entry
Output spec: scalar in %, unitless text.

Examples from the recorded data:
# molecule, numeric.result
data = [
    ("O=C(NCCCn1ccnc1)/C(=C\\c1cccs1)NC(=O)c1ccccc1", -69),
    ("Cc1nc2nc(C)c(CCC(=O)Nc3ccc4c(c3)OCO4)c(C)n2n1", -18),
    ("CCOc1ccccc1NC(=O)Cn1c(=O)n(-c2ccccc2)c(=O)c2oc3ccccc3c21", -16.4),
    ("O=C(NCCCn1ccnc1)/C(=C/c1cccs1)NC(=O)c1ccco1", -50.8),
    ("Cc1ccc(CN2CCN(Cc3nc4c(s3)CCCC4)CC2CCO)cc1 (stereo not drawn)", -55.3),
]

Reported hERG current change (%, negative = inhibition) at 10uM of `O=C(NCCCn1ccnc1)/C(=C/c1ccco1)NC(=O)c1ccco1` : -45.6

Reported hERG current change (%, negative = inhibition) at 10uM of `CN(C)S(=O)(=O)n1cc(/C=C(\NC(=O)c2ccccc2)C(=O)NCCCn2ccnc2)c2ccccc21` : 8.31

Reported hERG current change (%, negative = inhibition) at 10uM of `O=C(NCCCn1ccnc1)/C(=C/c1ccco1)NC(=O)c1cccs1` : -53.2

Reported hERG current change (%, negative = inhibition) at 10uM of `COc1ccccc1-c1c(C)nn2c(N3CCOCC3)cc(C)nc12` : 2.71

----------
# Lookup of reported hERG current change (%, negative = inhibition) at 10uM keyed by entry
# target.or.test.system: human ether-à-go-go-related gene (hERG) potassium channel (human, UniProt Q12809);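 also: peak tail current of the secondary pulse compared with the same well before compound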
# procedure.summary: primary screen, population patch clamp on CHO cells stably expressing hERG; higher = less effect of the substance
Among all 310,000 compounds or so, about 14,000 (4.5%) showed an effect of 50% or more. The effect is printed as a negative number. The full list was thinned out, with strong results kept by preference.
Output spec: scalar in %, unitless text.

Reported hERG current change (%, negative = inhibition) at 10uM of `CCN(CC)C(=O)Oc1nnc(SC(C)C)n1-c1ccc(Cl)cc1` : -4.75

Reported hERG current change (%, negative = inhibition) at 10uM of `CSc1nc2ccccc2n1Cc1cccc([N+](=O)[O-])c1` : -44.8

Reported hERG current change (%, negative = inhibition) at 10uM of `Cn1c(=O)c2c(ncn2CC(=O)OCC(=O)NC(c2ccccc2)c2ccccc2)n(C)c1=O` : -2.22

Reported hERG current change (%, negative = inhibition) at 10uM of `COc1ccc(OCC(=O)Nc2nnc(C)s2)cc1` : 9.71

Reported hERG current change (%, negative = inhibition) at 10uM of `COc1ccc(Cn2c(SC)nc3ccccc32)cc1[N+](=O)[O-]` : 13.9

Reported hERG current change (%, negative = inhibition) at 10uM of `CCn1cc(C(=O)NCC(OC)OC)c(=O)c2cc(S(=O)(=O)N(C)C3CCCCC3)ccc21` : -44.2

----------
# target.or.test.system: human ether-à-go-go-related gene (hERG) potassium channel (human);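 also: peak tail current of the secondary pulse compared with the same well before compound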
# procedure.summary: primary screen, population patch clamp on CHO cells stably expressing hERG; higher = less effect of the substance
Among all 310,000 compounds or so, about 14,000 (4.5%) showed an effect of 50% or more. The effect is printed as a negative number. Shown is part of a subset that was picked to be rich in strong results.
readout.name: hERG current change (%, negative = inhibition) at 10uM (%)
Output spec: scalar in %, unitless text.

Reported hERG current change (%, negative = inhibition) at 10uM of `CC(C)(C)C(=O)Nc1ccc2c(c1)OCCOCCOc1cc(NC(=O)C(C)(C)C)ccc1OCCOCCO2` : -65.5

----------
# Lookup of reported hERG current change (%, negative = inhibition) at 10uM keyed by entry
# target.or.test.system: human ether-à-go-go-related gene (hERG) potassium channel (human, UniProt Q12809);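 also: peak tail current of the secondary pulse compared with the same well before compound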
# procedure.summary: primary screen, population patch clamp on CHO cells stably expressing hERG; higher = less effect of the substance
# Description: Briefly, Chinese hamster ovary (CHO) cells stably expressing the hERG channel were dislodged from tissue culture flasks and dispensed into PPC plates. […] During the recording, background leak currents were estimated by a 100 ms step to -80 mV from an initial holding potential of -70 mV and subtracted from the subsequent current measurement. The campaign was conducted in two phases using slight differences in recording protocol. […]
Out of some 310,000 compounds screened, about 14,000 (4.5%) showed an effect of 50% or more. Effects have a minus sign here. Only a selection was taken, and strong results are over-represented in it overall.
Output spec: scalar in %, unitless text.

# molecule, units.label, numeric.result
measured = [
    ("O=C1NC(=O)C(CCc2ccncc2)(CCc2ccncc2)C(=O)N1CCc1ccccc1", "%", -71.7),
    ("O=C1NC(=O)C(CCc2ccncc2)(c2ccccc2)C(=O)N1", "%", 5.76),
    ("O=C(N/N=C/c1ccccn1)C1CC1", "%", -69.4),
    ("NC(=O)CC(NC(=O)Cc1ccc(Cl)cc1)c1ccc(NC2CCN(Cc3ccccc3)CC2)c([N+](=O)[O-])c1 (stereo not shown)", "%", -18.5),
    ("O=C(N/N=C/c1ccccn1)c1cc(Br)ccc1O", "%", -54.9),
]

Readout hERG current change (%, negative = inhibition) at 10uM for `CCCn1c(=N)c(C#N)cc2c(=O)n3ccccc3nc21` , test system human ether-à-go-go-related gene (hERG) potassium channel (human, UniProt Q12809), was -9.89

Readout hERG current change (%, negative = inhibition) at 10uM for `CCC1(CCc2ccncc2)C(=O)NC(=O)NC1=O` , test system human ether-à-go-go-related gene (hERG) potassium channel (human, UniProt Q12809), was -4.69

Readout hERG current change (%, negative = inhibition) at 10uM for `COc1cc(CC2(CCc3ccncc3)C(=O)N(C)C(=O)N(C)C2=O)cc(OC)c1OC` , test system human ether-à-go-go-related gene (hERG) potassium channel (human, UniProt Q12809), was -8.33

Readout hERG current change (%, negative = inhibition) at 10uM for `O=C(N/N=C/c1ccccn1)c1ccccc1` , test system human ether-à-go-go-related gene (hERG) potassium channel (human, UniProt Q12809), was 2.75

Readout hERG current change (%, negative = inhibition) at 10uM for NC(=O)CC(NC(=O)c1ccccc1)c1ccc(NC2CCN(Cc3ccccc3)CC2)c([N+](=O)[O-])c1 (stereo not shown) , test system human ether-à-go-go-related gene (hERG) potassium channel (human, UniProt Q12809), was 1.08
